- ASSAY DETAILS: probe aXIP binding to arrayed compounds – biochemical, NeuroSMM set, 635/667 nm fluorescence, primary screen (AID 1119);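 note: probe is the protein aXip251-270 applied at 1 µg/mL to compound-printed slides; binding of probe to printed compounds measured as 667 nm fluorescence plus signal to noise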
- STUDY CONDITIONS: small-molecule microarray, higher = more signal, called active from +8 up or from −8 down
OUTCOME MEASURE: composite Z-score

COMPOUND	OBSERVED RESULT
CCCNC(=O)[C@@]1(C)c2ccccc2C(=O)N(Cc2cc(F)cc(C(F)(F)F)c2)[C@H]1c1ccc(CO)cc1	0.373
O=C1OCCC/C=C\[C@H]2OC34C=CCN(Cn5nnc6ccccc65)C(=O)[C@H]3N(CCCO)C(=O)[C@@H]4C12 (stereo partly drawn)	-0.774
C[C@H]1C2[C@H](Cc3ccccc3)NC(=O)[C@]23C(=O)N[C@H](Cc2ccccc2)C(=O)N[C@H](Cc2ccccc2)C(=O)NC/C=C/CCC/C=C/C3[C@@H]2O[C@]12C (stereo partly drawn)	0.312
COc1c(C)cc(-c2cc3c(c(-c4ccccc4)n2)[Si](C(C)C)(C(C)C)O[C@H]3c2ccccc2)cc1C	-0.322
C=CCOC(=O)[C@@H]1[C@H]2C(=O)O[C@H](c3ccccc3)[C@H](c3ccccc3)N2[C@H](c2ccc(OCCOC(=O)[C@H]3C[C@H]4C(=O)N[C@@H](CC(C)C)C(=O)N4[C@H]3c3cccc(OCCO)c3)cc2)[C@@]12C(=O)Nc1ccc(I)cc12	-0.367
COCCOC(=O)N1C(=O)[C@@]2(c3cc(C#CCCO)ccc31)[C@H](C(=O)NC[C@H](O)c1ccccc1)[C@H]1C(=O)O[C@H](c3ccccc3)[C@H](c3ccccc3)N1[C@@H]2c1ccc(OCCO)cc1	0.192
O=C1OCCC=C[C@H]2OC34C=CCN(c5ccc6ccccc6c5)C(=O)[C@H]3N(CCCCCCO)C(=O)[C@@H]4C12 (stereo partly drawn)	0.938
O[C@@H](Cc1ccccc1)[C@@H](/C=C/c1ccccc1)NCc1ccccc1Br	-0.577
NC(=O)NCC#Cc1ccc2c(c1)[C@]1(C(=O)N2)[C@H](C(=O)NC[C@H](O)c2ccccc2)[C@H]2C(=O)O[C@H](c3ccccc3)[C@H](c3ccccc3)N2[C@@H]1c1ccccc1OCCO	0.15
C=C(C(=O)CC[C@@H](OC(=O)c1cccnc1)c1ccc(CO)o1)C(C)C	0.278
COc1ccc(CCNC(=O)[C@@]2(C)c3ccccc3C(=O)N(Cc3ccccc3)[C@H]2c2ccc(CO)cc2)cc1	0.247
Cc1ccc(S[C@]2(C(=O)NCCN3CCOCC3)CC(=O)N(C3CCCCC3)[C@@H]2c2ccc(CO)cc2)cc1	0.562
COCCOC(=O)N1C(=O)[C@@]2(c3ccccc31)[C@H](c1ccc(O)cc1)N1[C@H](c3ccccc3)[C@H](c3ccccc3)OC(=O)[C@H]1[C@@H]2C(N)=O	0.313
